Kindly find below pIC50 information for Aminopeptidase N (Sus scrofa, UniProt P15145) taken from the literature.
- experimental-target: Aminopeptidase N (Sus scrofa, UniProt P15145)
- Sequence (P15145 whole entry): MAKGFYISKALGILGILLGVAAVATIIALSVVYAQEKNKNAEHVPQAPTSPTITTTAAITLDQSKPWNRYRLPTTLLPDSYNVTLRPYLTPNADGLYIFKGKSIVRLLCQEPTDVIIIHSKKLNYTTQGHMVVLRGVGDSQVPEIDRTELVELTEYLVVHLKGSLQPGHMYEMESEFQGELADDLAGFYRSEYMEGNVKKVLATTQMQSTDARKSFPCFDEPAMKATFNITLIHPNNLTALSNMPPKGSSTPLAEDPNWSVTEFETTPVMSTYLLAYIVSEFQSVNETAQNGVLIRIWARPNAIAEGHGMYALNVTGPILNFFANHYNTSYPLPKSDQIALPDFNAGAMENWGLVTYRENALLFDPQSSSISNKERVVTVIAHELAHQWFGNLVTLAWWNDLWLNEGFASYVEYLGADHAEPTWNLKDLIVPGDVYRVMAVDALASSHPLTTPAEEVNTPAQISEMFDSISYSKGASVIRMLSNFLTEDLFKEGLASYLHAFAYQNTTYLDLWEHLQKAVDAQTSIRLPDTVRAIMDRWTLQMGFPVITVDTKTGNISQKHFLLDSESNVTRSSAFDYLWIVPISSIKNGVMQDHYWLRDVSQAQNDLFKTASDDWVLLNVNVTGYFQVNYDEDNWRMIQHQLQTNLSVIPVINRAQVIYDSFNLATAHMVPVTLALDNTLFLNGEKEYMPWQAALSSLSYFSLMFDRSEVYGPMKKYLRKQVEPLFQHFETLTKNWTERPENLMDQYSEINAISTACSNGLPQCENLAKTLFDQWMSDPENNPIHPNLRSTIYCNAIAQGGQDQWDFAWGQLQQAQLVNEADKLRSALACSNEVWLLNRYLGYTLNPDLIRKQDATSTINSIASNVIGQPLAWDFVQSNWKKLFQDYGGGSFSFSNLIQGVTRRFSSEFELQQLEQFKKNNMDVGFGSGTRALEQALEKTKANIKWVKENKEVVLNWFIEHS
To interpret pIC50, take it as minus log10 of a concentration measured in moles per litre.

Q) State the recorded pIC50 for this entry: CC(C)C[C@H](NC(=O)[C@H](N)Cc1ccccc1)C(=O)NC[C@H](N)[C@@H](O)c1ccc(I)cc1
A) 3.98

Q) State the recorded pIC50 for this entry: COC(=O)[C@@H](CS)NC(=O)CN1C(=O)CC[C@H](NC(=O)c2cc(OC)c(OC)c(OC)c2)C1=O
A) 4.30

Q) State the recorded pIC50 for this entry: O=C(/C=C/c1ccccc1)N[C@H](CC(=O)Nc1cccc([N+](=O)[O-])c1)C(=O)NO
A) 2.84

Q) State the recorded pIC50 for this entry: N[C@@H](Cc1ccc(O)cc1)C(=O)NC[C@H](N)[C@@H](O)c1ccc([N+](=O)[O-])cc1
A) 4.41

Q) State the recorded pIC50 for this entry: Cc1cccc(C)c1Cn1cc(CNC(=O)N[C@@H](CC(C)C)C(=O)NO)nn1
A) 6.41

====

Kindly find below IC50 information for Aminopeptidase N (Sus scrofa, UniProt P15145) taken from the literature.
# unit: µM | format: bare number

CC(C)C[C@H](NC(=O)NCc1cn(Cc2cccc(OCc3ccccc3)c2)nn1)C(=O)NO ... 0.24
COC(=O)[C@@H](NC(=O)CC(=O)[C@H](N)Cc1ccccc1)c1ccccc1 ... 6.03
CC(C)[C@H](N)C(=O)NC[C@H](N)Cc1ccccc1 ... 476
CC(C)C[C@H](NC(=O)NCc1ccco1)C(=O)NO ... 2.3
C[C@H](NC(=O)NCCc1ccccc1)C(=O)NO ... 21
Cc1nc2ccccc2n(CC(=O)NNC(=O)c2ccc(Cl)cc2)c1=O ... 272
O=C(CC(Cc1ccccc1)C(=O)NC(Cc1ccccc1)C(=O)O)NO (stereo unspecified) ... 0.13
COc1ccc(C(=O)N[C@@H](Cc2ccccc2)C(=O)NC[C@H](N)Cc2ccccc2)cc1 ... 174

We now examine a further compound.
Q) Kindly state the measured IC50 obtained for Cc1ccc(CNC(=O)N[C@H](C(=O)NO)c2ccccc2)cc1 with Aminopeptidase N (Sus scrofa, UniProt P15145).
A) 1.64
